Cited source for all entries: ChEMBL document CHEMBL5385952

tested on: Phytophthora capsici; assay: Antifungal activity against Phytophthora capsici at 150 uM; type: functional
attributeMeasured: Activity

>>> result("Cc1cc(O)c(O)c2c1[C@]1(C)CC[C@H]3C(C)(C)CCC[C@]3(C)[C@H]1C2")
"59%"
>>> result("CC1(C)CCC[C@]2(C)[C@H]3Cc4cc(O)cc(O)c4[C@]3(C)CC[C@@H]12")
"65%"
>>> result("CC1(C)CCC[C@]2(C)[C@H]3Cc4c(O)c(O)cc(C=O)c4[C@]3(C)CC[C@@H]12")
"29%"

---

test system: Sclerotinia sclerotiorum; assay: Antifungal activity against Sclerotinia sclerotiorum at 150 uM; format: functional
Measured Activity, listed per entry.
attributeMeasured: Activity (%)

>>> recordednumber("Cc1cc(O)cc2c1[C@]1(C)CC[C@H]3C(C)(C)CCC[C@]3(C)[C@H]1C2")
11
>>> recordednumber("CCc1cc(O)c(O)c2c1[C@]1(C)CC[C@H]3C(C)(C)CCC[C@]3(C)[C@H]1C2")
37
>>> recordednumber("CC1(C)CCC[C@]2(C)[C@H]3Cc4c(O)c(O)cc(C(=O)O)c4[C@]3(C)CC[C@@H]12")
76
>>> recordednumber("CC1(C)CCC[C@]2(C)[C@H]3Cc4c(ccc(O)c4O)[C@]3(C)CC[C@@H]12")
63

---

Listing: Activity of selected molecules
tested on: Botrytis cinerea; experiment: Antifungal activity against Botrytis cinerea at 150 uM; format: functional
attributeMeasured: Activity (%)

>>> recordednumber("Cc1cc2c(cc1O)C[C@@H]1[C@@]3(C)CCCC(C)(C)[C@@H]3CC[C@@]21C")
24
>>> recordednumber("Cc1cc(O)c(O)c2c1[C@]1(C)CC[C@H]3C(C)(C)CCC[C@]3(C)[C@H]1C2")
70
>>> recordednumber("CC1(C)CCC[C@]2(C)[C@H]3Cc4cc(O)cc(O)c4[C@]3(C)CC[C@@H]12")
39
>>> recordednumber("Cc1cc(O)cc2c1[C@]1(C)CC[C@H]3C(C)(C)CCC[C@]3(C)[C@H]1C2")
7
>>> recordednumber("CC1(C)CCC[C@]2(C)[C@H]3Cc4c(cc(C=O)c(O)c4O)[C@]3(C)CC[C@@H]12")
15
>>> recordednumber("CCc1cc(O)c(O)c2c1[C@]1(C)CC[C@H]3C(C)(C)CCC[C@]3(C)[C@H]1C2")
37
>>> recordednumber("CC1(C)CCC[C@]2(C)[C@H]3Cc4c(O)c(O)cc(C(=O)O)c4[C@]3(C)CC[C@@H]12")
56
>>> recordednumber("COC(=O)c1cc(O)c(O)c2c1[C@]1(C)CC[C@H]3C(C)(C)CCC[C@]3(C)[C@H]1C2 [PELOROL]")
52

---

system: Botrytis cinerea; assay: Antifungal activity against Botrytis cinerea at 150 uM; format: functional
Below, each of the molecules is paired with its reported Activity value.
attributeMeasured: Activity (%)

>>> recordednumber("CC1(C)CCC[C@]2(C)[C@H]3Cc4cc(O)ccc4[C@]3(C)CC[C@@H]12")
34
>>> recordednumber("CC1(C)CCC[C@]2(C)[C@H]3Cc4c(O)c(O)cc(C=O)c4[C@]3(C)CC[C@@H]12")
33
>>> recordednumber("CC1(C)CCC[C@]2(C)[C@H]3Cc4c(ccc(O)c4O)[C@]3(C)CC[C@@H]12")
43

---

test system: Phytophthora capsici; experiment: Antifungal activity against Phytophthora capsici at 150 uM; assay type: functional
Criterion: Activity strictly under 40%. Met: YES. Not met: NO.

>>> labelclass("CCc1cc(O)c(O)c2c1[C@]1(C)CC[C@H]3C(C)(C)CCC[C@]3(C)[C@H]1C2")
"YES"
>>> labelclass("Cc1cc(O)cc2c1[C@]1(C)CC[C@H]3C(C)(C)CCC[C@]3(C)[C@H]1C2")
"YES"
>>> labelclass("CC1(C)CCC[C@]2(C)[C@H]3Cc4c(O)c(O)cc(C(=O)O)c4[C@]3(C)CC[C@@H]12")
"NO"
>>> labelclass("CC1(C)CCC[C@]2(C)[C@H]3Cc4c(ccc(O)c4O)[C@]3(C)CC[C@@H]12")
"NO"
>>> labelclass("Cc1cc2c(cc1O)C[C@@H]1[C@@]3(C)CCCC(C)(C)[C@@H]3CC[C@@]21C")
"YES"
>>> labelclass("CC1(C)CCC[C@]2(C)[C@H]3Cc4c(cc(C=O)c(O)c4O)[C@]3(C)CC[C@@H]12")
"YES"
>>> labelclass("CC1(C)CCC[C@]2(C)[C@H]3Cc4cc(O)ccc4[C@]3(C)CC[C@@H]12")
"YES"

---

tested on: Sclerotinia sclerotiorum; test: Antifungal activity against Sclerotinia sclerotiorum at 150 uM; format: functional
attributeMeasured: Activity

>>> result("Cc1cc2c(cc1O)C[C@@H]1[C@@]3(C)CCCC(C)(C)[C@@H]3CC[C@@]21C")
"31%"
>>> result("CC1(C)CCC[C@]2(C)[C@H]3Cc4c(cc(C=O)c(O)c4O)[C@]3(C)CC[C@@H]12")
"34%"
>>> result("CC1(C)CCC[C@]2(C)[C@H]3Cc4cc(O)cc(O)c4[C@]3(C)CC[C@@H]12")
"43%"
>>> result("COC(=O)c1cc(O)c(O)c2c1[C@]1(C)CC[C@H]3C(C)(C)CCC[C@]3(C)[C@H]1C2")
"75%"
>>> result("CC1(C)CCC[C@]2(C)[C@H]3Cc4cc(O)ccc4[C@]3(C)CC[C@@H]12")
"51%"
>>> result("Cc1cc(O)c(O)c2c1[C@]1(C)CC[C@H]3C(C)(C)CCC[C@]3(C)[C@H]1C2")
"49%"
>>> result("CC1(C)CCC[C@]2(C)[C@H]3Cc4c(O)c(O)cc(C=O)c4[C@]3(C)CC[C@@H]12")
"28%"
